B1: ATL3 (parent)
chain: YGLQGGMAFLDKRLQVKEHQHEEI

- Variants of: B1
- PROCEDURE_DETAILS: protein stability index of a GFP-peptide fusion (GPS, HEK-293T) (PSI 1-6); higher = more stable;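 also: lentivirally expressed fusions sorted by FACS into six bins by GFP to DsRed ratio, PSI derived from sequencing read proportions per bin multiplied by bin number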
- EXPERIMENTAL_CONTEXT: c terminus: a fixed tail appended
Each entry below carries its recorded protein stability index.
Enter the number alone.

Y1W :: 2.45
K12W :: 2.44
R13W :: 1.73

In: # return recorded protein stability index for input V16N
Out: 1.6

In: Supply recorded protein stability index for V16D here.
Out: 2.08

In: Specify measured protein stability index for H21M .
Out: 2.2
